Tested on: Acinetobacter baumanii T6474
assayMethodText: Bacterial growth minimal inhibitory concentration (microdilution, cation-adjusted Mueller-Hinton Broth)
Assay type: cell-based
appliedConditions: Acinetobacter baumannii, multiply-resistant strain, in particular quinolone resistant
readoutLabel: log10 of MIC (log10 of the value in µg/mL)
Form field - Quantity: MIC; Unit: µg/mL; Scale: log10

molecule: O=C1COc2ccc(N3C[C@@H](CNC4CN(c5nc6c(cc5F)c(=O)c(C(=O)O)cn6C5CC5)C4)OC3=O)nc2N1
log10 of MIC: -1.51
//
molecule: O=C1COc2ccc(N3C[C@H](CN4CCN(c5nc6c(cc5F)c(=O)c5c(O)nsc5n6C5CC5)CC4)OC3=O)nc2N1
log10 of MIC: -0.90
//
molecule: O=C1CSc2ccc(N3C[C@H](CN4CCN(c5nc6c(cc5F)c(=O)c(C(=O)O)cn6C5CC5)CC4)OC3=O)cc2N1
log10 of MIC: -0.90
//
molecule: O=C1COc2ccc(N3C[C@H](CNC4CN(c5nc6c(cc5F)c(=O)c5c(O)nsc5n6C5CC5)C4)OC3=O)nc2N1
log10 of MIC: -1.20
//
molecule: O=C1CSc2ccc(N3C[C@@H](CN4CCN(c5nc6c(cc5F)c(=O)c(C(=O)O)cn6C5CC5)CC4)OC3=O)cc2N1
log10 of MIC: -0.90
//
molecule: COc1c(N2CC(NC[C@@H]3CN(c4ccc5c(n4)NC(=O)CO5)C(=O)O3)C2)ccc2c(=O)c(C(=O)O)cn(C3CC3)c12
log10 of MIC: -0.60
//
molecule: O=C1CSc2ccc(N3C[C@@H](CN4CCN(c5cc6c(cc5F)c(=O)c(C(=O)O)cn6C5CC5)CC4)OC3=O)cc2N1
log10 of MIC: -0.90
//
molecule: O=C1COc2ccc(N3C[C@@H](CNC4CN(c5nc6c(cc5F)c(=O)c(C(=O)O)cn6Cc5ccccc5)C4)OC3=O)nc2N1
log10 of MIC: 0.00
//
molecule: O=C1CSc2ccc(N3C[C@@H](CNC4CN(c5nc6c(cc5F)c(=O)ccn6C5CC5)C4)OC3=O)cc2N1
log10 of MIC: 0.00
//
molecule: O=C1COc2ccc(N3C[C@@H](CNC4CN(c5ccc6c(=O)c(C(=O)O)cn(C7CC7)c6n5)C4)OC3=O)nc2N1
log10 of MIC: -1.22

Task: Please give the measured log10 of MIC for this molecule: O=C1COc2ccc(N3C[C@H](CN4CCN(c5nc6c(cc5F)c(=O)c(C(=O)O)cn6C5CC5)CC4)OC3=O)nc2N1
Result: -1.20

Task: Please give the measured log10 of MIC for this molecule: COc1c(N2CC(NC[C@@H]3CN(c4ccc5c(c4)NC(=O)CS5)C(=O)O3)C2)ccc2c(=O)c(C(=O)O)cn(C3CC3)c12
Result: -0.60

Task: Please give the measured log10 of MIC for this molecule: O=C1COc2ccc(N3C[C@@H](CN4CCN(c5nc6c(cc5F)c(=O)c(C(=O)O)cn6C5CC5)CC4)OC3=O)nc2N1
Result: -0.60

Task: Please give the measured log10 of MIC for this molecule: O=C1CSc2ccc(N3C[C@@H](CN4CCN(c5cc6c(cc5F)c(=O)c(C(=O)O)cn6C5CC5)CC4)OC3=O)nc2N1
Result: -1.20

Task: Please give the measured log10 of MIC for this molecule: O=C1COc2ccc(N3C[C@H](CNC4CCN(c5nc6c(cc5F)c(=O)c(C(=O)O)cn6C5CC5)C4)OC3=O)nc2N1 (mixture of isomers)
Result: -0.60

Task: Please give the measured log10 of MIC for this molecule: CCn1cc(C(=O)O)c(=O)c2ccc(N3CC(NC[C@@H]4CN(c5ccc6c(n5)NC(=O)CO6)C(=O)O4)C3)nc21
Result: -1.22

Task: Please give the measured log10 of MIC for this molecule: O=C1CSc2ccc(N3C[C@@H](CNC4CN(c5ccc6c(=O)c(C(=O)O)cn(C7CC7)c6n5)C4)OC3=O)cc2N1
Result: -0.60

Task: Please give the measured log10 of MIC for this molecule: O=C1CSc2ccc(N3C[C@@H](CNC4CN(c5nc6c(cc5F)c(=O)c(C(=O)O)cn6C5CC5)C4)OC3=O)cc2N1
Result: -0.90
